Entries with reported log10 of IC50 on acetylcholinesterase (Rattus norvegicus)
A value of 2 here means IC50 of 100 in nM, since values are log10.

>>> print(df.to_string())
                                   compound  observed_result
0  N#Cc1ccc(C=CC(=O)NCCC2CCN(Cc3ccccc3)CC2)cc1 [Example 4-9]             3.52
1  O=C(C=Cc1cccs1)NCCC1CCN(Cc2ccccc2)CC1 [Example 4-5]             4.11

Record log10 of IC50 for all entries; do not skip any.
1. COc1ccc(C=CC(=O)NCCC2CCN(Cc3ccccc3)CC2)cc1OC [Example 4-6]
2. O=C(C=Cc1cccnc1)NCCC1CCN(Cc2ccccc2)CC1 [Example 4-3]
3. O=C(C=Cc1ccco1)NCCC1CCN(Cc2ccccc2)CC1 [Example 4-4]
4. CC(=O)N(CCC1CCN(Cc2ccccc2)CC1)C(=O)/C=C/c1ccccc1 [Example 3]
5. COc1cc2c(cc1OC)CCC(C(=O)NCCC1CCN(Cc3ccccc3)CC1)=C2 [Example 4-7]

Result:
1: 3.41; 2: 3.30; 3: 4.00; 4: 2.81; 5: 3.08

Record log10 of IC50 for all entries; do not skip any.
1. O=C(NCCC1CCN(Cc2ccccc2)CC1)C(=Cc1ccccc1)c1ccccc1 [Example 4-2]
2. O=C(C=Cc1ccc([N+](=O)[O-])cc1)NCCC1CCN(Cc2ccccc2)CC1 [Example 4-8]

Result:
1. 3.54
2. 3.45

====

Entries with reported IC50 on acetylcholinesterase (Rattus norvegicus, UniProt P37136)
Sequence (P37136 32-614): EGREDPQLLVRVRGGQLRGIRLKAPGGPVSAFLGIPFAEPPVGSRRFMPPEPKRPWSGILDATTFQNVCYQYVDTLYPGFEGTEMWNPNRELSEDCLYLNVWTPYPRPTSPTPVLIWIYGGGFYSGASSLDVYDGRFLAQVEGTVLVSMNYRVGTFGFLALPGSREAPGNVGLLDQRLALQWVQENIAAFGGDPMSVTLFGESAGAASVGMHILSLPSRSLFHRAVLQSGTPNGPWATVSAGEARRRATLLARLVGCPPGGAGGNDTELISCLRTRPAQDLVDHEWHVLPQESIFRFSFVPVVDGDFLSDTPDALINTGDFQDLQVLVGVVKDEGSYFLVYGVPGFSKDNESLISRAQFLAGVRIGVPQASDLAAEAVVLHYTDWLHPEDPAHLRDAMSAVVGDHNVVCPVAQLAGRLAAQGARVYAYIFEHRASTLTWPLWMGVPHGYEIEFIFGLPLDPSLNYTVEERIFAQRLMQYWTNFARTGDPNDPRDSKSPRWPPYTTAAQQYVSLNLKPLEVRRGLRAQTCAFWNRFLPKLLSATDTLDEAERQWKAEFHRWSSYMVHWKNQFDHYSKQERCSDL
Answers are plain numbers, in µM.

                            chemical_string  observed_result
0  CN(CCC1CCN(Cc2ccccc2)CC1)C(=O)/C=C/c1ccccc1               18

Record IC50 for all entries; do not skip any.
1. O=C(C=Cc1ccc(Cl)cc1)NCCC1CCN(Cc2ccccc2)CC1
2. Cc1ccc(C=CC(=O)NCCC2CCN(Cc3ccccc3)CC2)cc1
3. CS(=O)(=O)c1ccc(C=CC(=O)NCCC2CCN(Cc3ccccc3)CC2)cc1
4. O=C(/C=C/c1ccccc1)NCCC1CCN(Cc2ccccc2)CC1
5. CC(=Cc1ccccc1)C(=O)NCCC1CCN(Cc2ccccc2)CC1

Result:
1: 9.2; 2: 15; 3: 1.6; 4: 9.6; 5: 8.1

Data provenance: patent US5169856A
